// data source = patent US8247211B2

Here the recorded MIC Coagulase Negative Staphylococcus (GC 4548) is given for each entry.
Tested on: Staphylococcus sp.
Assay: In vitro antibacterial evaluation: minimum inhibitory concentration (MIC), broth dilution method
Format: cell-based
Settings: Coagulase Negative Staphylococcus (GC 4548); 18 hours at 35° C.
Number in µg/mL, nothing else.

# compound, measured result
records = [
    ("CC(C)CC(=O)OC1C(OC2C(CO)OC(Oc3ccc(CC4NC(=O)C(C(C)c5cccs5)NC(=O)CNC(=O)C(CO)NC(=O)C(C(O)C5CNC(=N)N5C5OC(CO)C(O)C(O)C5O)NC(=O)C(C(O)C5CNC(=N)N5)NC4=O)cc3)C(O)C2O)OC(CO)C(O)C1O (stereo not shown) [Example 265a]", 8),
    ("CC(c1ccccc1)C1NC(=O)CNC(=O)C(CO)NC(=O)C(C(O)C2CNC(=N)N2C2OC(CO)C(O)C(O)C2O)NC(=O)C(C(O)C2CNC(=N)N2)NC(=O)C(Cc2ccc(OC3OC(CO)C(OC4OC(COCC=C(c5ccccc5)c5ccccc5)C(O)C(O)C4O)C(O)C3O)cc2)NC1=O (stereo not shown) [Example 241]", 1),
]

[Q] Entry CCOc1cc(COCC2OC(OC3C(CO)OC(Oc4ccc(CC5NC(=O)C(C(C)c6ccccc6)NC(=O)CNC(=O)C(CO)NC(=O)C(C(O)C6CNC(=N)N6C6OC(CO)C(O)C(O)C6O)NC(=O)C(C(O)C6CNC(=N)N6)NC5=O)cc4)C(O)C3O)C(O)C(O)C2O)ccc1OC (stereo not shown) [Example 238] , system Staphylococcus sp.: what MIC Coagulase Negative Staphylococcus (GC 4548) was measured?
[A] 2

[Q] Also need COc1ccc(COCC2OC(OC3C(CO)OC(Oc4ccc(CC5NC(=O)C(C(C)c6ccccc6)NC(=O)CNC(=O)C(CO)NC(=O)C(C(O)C6CNC(=N)N6C6OC(CO)C(O)C(O)C6O)NC(=O)C(C(O)C6CNC(=N)N6)NC5=O)cc4)C(O)C3O)C(O)C(O)C2O)cc1 (stereo not shown) [Example 232] , thanks.
[A] 2

[Q] Would you kindly repeat that for CC(C)CCC(=O)OC1C(OC2C(CO)OC(Oc3ccc(CC4NC(=O)C(C(C)c5ccccc5)NC(=O)CNC(=O)C(CO)NC(=O)C(C(O)C5CNC(=N)N5C5OC(CO)C(O)C(O)C5O)NC(=O)C(C(O)C5CNC(=N)N5)NC4=O)cc3)C(O)C2O)OC(CO)C(O)C1O (stereo not shown) [Example 270a] ?
[A] 2

###

Test system: Enterococcus sp.
Test: In vitro antibacterial evaluation: minimum inhibitory concentration (MIC), broth dilution method
Assay type: cell-based
Settings: Enterococcus faecalis (GC 4554); 18 hours at 35° C.
Listed next: entries and their corresponding MIC Enterococcus faecalis (GC 4554).
The response must be a number in µg/mL with no trailing unit.

# compound, tested target, MIC Enterococcus faecalis (GC 4554) [µg/mL]
rows = [
    ("Cc1ccc(COCC2OC(OC3C(CO)OC(Oc4ccc(CC5NC(=O)C(C(C)c6ccccc6)NC(=O)CNC(=O)C(CO)NC(=O)C(C(O)C6CNC(=N)N6C6OC(CO)C(O)C(O)C6O)NC(=O)C(C(O)C6CNC(=N)N6)NC5=O)cc4)C(O)C3O)C(O)C(O)C2O)cc1 (stereo not drawn)", "Enterococcus sp.", 8),
    ("CC(c1ccccc1)C1NC(=O)CNC(=O)C(CO[Si](C)(C)C(C)(C)C)NC(=O)C(C(O)C2CNC(=N)N2C2OC3COC(C)(C)OC3C3OC(C)(C)OC32)NC(=O)C(C(O)C2CNC(=N)N2)NC(=O)C(Cc2ccc(O)cc2)NC1=O (stereo not drawn)", "Enterococcus sp.", 64),
    ("CC(c1ccccc1)C1NC(=O)CNC(=O)C(CO)NC(=O)C(C(O)C2CNC(=N)N2C2OC(CO)C(O)C(O)C2O)NC(=O)C(C(O)C2CNC(=N)N2)NC(=O)C(Cc2ccc(OC3OC(CO)C(OC4OC5COC6(CCCCC6C)OC5C(O)C4O)C(O)C3O)cc2)NC1=O (stereo not drawn)", "Enterococcus sp.", 16),
    ("CC(C)CC(=O)OC1C(O)C(OC2C(CO)OC(Oc3ccc(CC4NC(=O)C(C(C)c5ccccc5)NC(=O)CNC(=O)C(CO)NC(=O)C(C(O)C5CNC(=N)N5C5OC(CO)C(O)C(O)C5O)NC(=O)C(C(O)C5CNC(=N)N5)NC4=O)cc3)C(O)C2O)OC2COC3(OC21)C1CC2CC(C1)CC3C2 (stereo not drawn)", "Enterococcus sp.", 4),
    ("COc1ccc(COCC2OC(OC3C(CO)OC(Oc4ccc(CC5NC(=O)C(C(C)c6ccccc6)NC(=O)CNC(=O)C(CO)NC(=O)C(C(O)C6CNC(=N)N6C6OC(CO)C(O)C(O)C6O)NC(=O)C(C(O)C6CNC(=N)N6)NC5=O)cc4)C(O)C3O)C(O)C(O)C2O)cc1F (stereo not drawn)", "Enterococcus sp.", 32),
]

[Q] Recorded MIC Enterococcus faecalis (GC 4554) for COc1ccc(COC2C(CO)OC(OC3C(CO)OC(Oc4ccc(CC5NC(=O)C(C(C)c6ccccc6)NC(=O)CNC(=O)C(CO)NC(=O)C(C(O)C6CNC(=N)N6C6OC(CO)C(O)C(O)C6O)NC(=O)C(C(O)C6CNC(=N)N6)NC5=O)cc4)C(O)C3O)C(O)C2O)cc1OCc1ccccc1 (stereo not drawn) [Example 239a] , please?
[A] 16

[Q] Can you handle N=C1NCC(C(O)C2NC(=O)C(Cc3ccc(OC4OC(CO)C(OC5OC6COC7(OC6C(O)C5O)C5CC6CC(C5)CC7C6)C(O)C4O)cc3)NC(=O)C(Cc3ccccc3)NC(=O)CNC(=O)C(CO)NC(=O)C(C(O)C3CNC(=N)N3C3OC(CO)C(O)C(O)C3O)NC2=O)N1 (stereo not drawn) next?
[A] 2
